assay: protein stability index of a GFP-peptide fusion (GPS, HEK-293T) (PSI 1-6); higher = more stable; conditions: treatment: DMSO; c terminus: a fixed tail appended;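 further: 24-mer peptide tiles fused after GFP, lentivirally expressed, FACS-sorted into six equal bins by GFP/DsRed ratio, decoded by Illumina sequencing, PSI is the read-weighted mean bin number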
quantity.kind: protein stability index

INSERT INTO assay_data (residue_codes, readout_value) VALUES
  ('DEKQCKQCANKVLQHMKAVQADQE [LRRC59]', 4.78),
  ('AEEAESHFSSIPDAFWWAVVSMTT [KCNA1]', 2.11),
  ('HVTVVILFFVPCIFLYARPNSTFP [OR4A15]', 2.83),
  ('AAARPSSCRRKQEDDRDGLLAERE [TMEM106C]', 5.18),
  ('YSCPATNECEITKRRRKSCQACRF [ESRRG]', 3.59),
  ('FMGTISDVKTNVQLLKGRVDNIST [CD207]', 3.02),
  ('ILAIIAKEGDCAPEEKIWEELSVL [MAGEA6]', 2.44),
  ('KVQNECPGITRVYSIGRSVEGRHL [CPN1]', 3.08),
  ('ARNGNAEEVRQLLETMARNEVIAD [OSBPL1A]', 4.11),
  ('EEAPELDEAELDYLMDVLVGTQAL [SERTAD1]', 4.05),
  ('DKYCPLLIKEGGMPLLRDIIKMAT [ZER1]', 2.46),
  ('NFDNPWNFQNIPKETELPFPKQIL [MIA2]', 2.74),
  ('QKPRGLEGGVLRGSKLEKGHLRGP [ZSWIM9]', 3.98),
  ('GLQRNLLVENIIDIYKQECSSRPL [TRIM63]', 2.71),
  ('YLRDSSPAPCADGPAGGLADLSSG [PWWP2B]', 4.78),
  ('NSLWKKNKTICKERLQILCFFLLI [NLN]', 2.9),
  ('DNVAYARAFNTDHQTQLLYQASAM [RAD51]', 3.12),
  ('ICKEVQAEQEPTRKLFEVESVTHH [SPAG8]', 4.47),
  ('LLETANQTLQAMDSEDFPQAAKQI [FSD1]', 4.92),
  ('SLFCYEDQEAVCLICAISHTHRAH [TRIM39]', 2.15),
  ('SGKESPPVSDTPDEGDEPMPIPED [IKZF1]', 5.87),
  ('AAAGLHASPMSADRVVAFMDHIRI [NR2F2]', 2.25),
  ('FVCQCYSGYALAEDGKRCVAVDYC [MATN2]', 2.29),
  ('DSSWYEPSAELVQTRMAVSLTAAE [ZNF232]', 4.26),
  ('NIYVHDLLTFQQITTVSKAKGASL [VPS39]', 2.32),
  ('DSHLGGNARGMGIRSPRPASVATW [CTBP1-DT]', 3.56),
  ('FGDLSLSLVTVGKHLTARVLCLIV [POMT2]', 3.39),
  ('ALCVVDTIKRSSQTGEWQNIAIMT [GFOD1]', 2.31),
  ('VSVRVQPRGRAHLLPNPYQQDFLG [C22orf15]', 2.2),
  ('NVQILLPVGEPVTNVRLQPAATWN [FCHO1]', 2.32),
  ('DIDKKHLVLLRDGRTLIGFLRSID [LSM1]', 2.3),
  ('TPSVPPPASQHSTPAGLPPSRAKP [FBF1]', 5.3),
  ('TRRVTFEADENENITVVKGIRLSE [CHCHD3]', 4.29),
  ('LVGDDAACIAYIRLTQYMDGSGMP [CAMK2D]', 2.13),
  ('HPNSRKSSAGGAKAGQPESRALAL [ZNF8]', 4.67),
  ('PPEQGKIFIARRSLLDELLEVDHI [SOAT1]', 2.76),
  ('NYLFMGDYVDRGYYSVETVTLLVA [PPP2CA]', 2.71),
  ('QVALLRLTWSELFVLNAAQCSMPL [NR2F2]', 2.97),
  ('ILQLEECCTHNNSATLSWKQPPLS [TRIM9]', 2.67),
  ('LLRDRTGQQSDTAQLELYQLQVES [SCARA5]', 4.42);

Provenance of the data: the supplement of paper PMC10567573
